# Test system: BL-41 (Burkitt's Lymphoma)
# protocolDescription: combination Emax (second highest fraction inhibited in the dose matrix, 72 h); higher = more inhibition; extreme values may be limits of the assay
property: combination Emax
Give only the figure.

The cases that follow already have their combination Emax on record.
compound	experimentalResult
N#Cc1cnc(Nc2cc(NC[C@H]3CNCCO3)c(C(F)(F)F)cn2)cn1 [SRA737] + O=c1[nH]cc(F)c(=O)[nH]1 [5-Fluorouracil] (first compound max 10 µM, 7x7, partner max 20 µM)	1
Cc1c2c(nn1C)CSCc1cc(n(C)n1)CSc1cc(c3ccccc3c1)OCCCc1c(C(=O)O)n(C)c3c-2c(Cl)ccc13 [AZD5991] + C[C@@H](Nc1cc(F)cc(F)c1)c1cc(C(=O)N(C)C)cc2c(=O)cc(N3CCOCC3)oc12 [AZD8186] (first compound max 1 µM, 7x7, partner max 3 µM)	1
CCc1c2c(nc3ccc(O)cc13)-c1cc3c(c(=O)n1C2)COC(=O)[C@]3(O)CC [SN-38] + CN(C)CCCOc1ccc(-c2ccc3ncc4c(c3c2)n(C2CCOCC2)c(=O)n4C)cn1 [AZD0156] (first compound max 0.3 µM, 7x7, partner max 1 µM)	1
CN(CCO)CC[C@H](CSc1ccccc1)Nc1ccc(S(=O)(=O)NC(=O)c2ccc(N3CCC([C@@H](O)c4ccccc4-c4ccc(Cl)cc4)CC3)cc2)cc1S(=O)(=O)C(F)(F)F [AZD4320] + Nc1ccn([C@@H]2O[C@H](CO)[C@@H](O)C2(F)F)c(=O)n1 [Gemcitabine] (first compound max 1 µM, 7x7, partner max 0.3 µM)	1
CC(=O)c1c(C)c2cnc(Nc3ccc(N4CCNCC4)cn3)nc2n(C2CCCC2)c1=O [Palbociclib] + Cn1cnc2c(F)c(Nc3ccc(Br)cc3Cl)c(C(=O)NOCCO)cc21 [Selumetinib] (first compound max 10 µM, 7x7, partner max 10 µM)	0.433

# combination Emax of Cc1c2c(nn1C)CSCc1cc(n(C)n1)CSc1cc(c3ccccc3c1)OCCCc1c(C(=O)O)n(C)c3c-2c(Cl)ccc13 [AZD5991] + CC(=O)O[C@H]1C(=O)[C@@]2(C)[C@H]([C@H](OC(=O)c3ccccc3)[C@]3(O)C[C@H](OC(=O)[C@H](O)[C@@H](NC(=O)c4ccccc4)c4ccccc4)C(C)=C1C3(C)C)[C@]1(OC(C)=O)CO[C@@H]1C[C@@H]2O [Paclitaxel] (first compound max 1 µM, 7x7, partner max 3 µM) = 1

# combination Emax of NC1(C(=O)N[C@@H](CCO)c2ccc(Cl)cc2)CCN(c2ncnc3[nH]ccc23)CC1 [Capivasertib] + CCN(CCO)CCCOc1ccc2c(Nc3cc(CC(=O)Nc4cccc(F)c4)[nH]n3)ncnc2c1 [AZD2811] (first compound max 10 µM, 7x7, partner max 1 µM) = 0.706

----------
# Tested on: COLO-678 (Colorectal Carcinoma)
# protocolDescription: combination Emax (second highest fraction inhibited in the dose matrix, 72 h); higher = more inhibition; extreme values may be limits of the assay
property: combination Emax
Give only the figure.

The cases that follow already have their combination Emax on record.
molecule	combination Emax
CCN(CCO)CCCOc1ccc2c(Nc3cc(CC(=O)Nc4cccc(F)c4)[nH]n3)ncnc2c1 [AZD2811] + O=C(c1cc(Cc2n[nH]c(=O)c3ccccc23)ccc1F)N1CCN(C(=O)C2CC2)CC1 [Olaparib] (first compound max 1 µM, 7x7, partner max 10 µM)	0.153
NC1(C(=O)N[C@@H](CCO)c2ccc(Cl)cc2)CCN(c2ncnc3[nH]ccc23)CC1 [Capivasertib] + CC(=O)c1c(C)c2cnc(Nc3ccc(N4CCNCC4)cn3)nc2n(C2CCCC2)c1=O [Palbociclib] (first compound max 10 µM, 7x7, partner max 10 µM)	0.354

Consider the additional molecule presented here.
# combination Emax of CN(CCO)CC[C@H](CSc1ccccc1)Nc1ccc(S(=O)(=O)NC(=O)c2ccc(N3CCC([C@@H](O)c4ccccc4-c4ccc(Cl)cc4)CC3)cc2)cc1S(=O)(=O)C(F)(F)F [AZD4320] + CCN(CCO)CCCOc1ccc2c(Nc3cc(CC(=O)Nc4cccc(F)c4)[nH]n3)ncnc2c1 [AZD2811] (first compound max 1 µM, 7x7, partner max 1 µM) = 0.456

----------
# System: MKN28 (Gastric Carcinoma)
# protocolDescription: Bliss excess, mean over the matrix (fraction); higher = more synergy
Reported Bliss excess values for a set of molecules
Give only the figure.

molecule	experimentalResult
COc1cccc2c1C(=O)c1c(O)c3c(c(O)c1C2=O)C[C@@](O)(C(=O)CO)C[C@@H]3O[C@H]1C[C@H](N)[C@H](O)[C@H](C)O1 [Doxorubicin] + Cc1cc2ncnn2cc1Nc1ncc2c(n1)n(C1CCOCC1)c(=O)n2C [AZD7648] (first compound max 1 µM, 7x7, partner max 10 µM)	-0.0179
COc1nnc2ccc(N3CCC(c4ccc(OCCN5CCN(C)C(=O)[C@H]5C)cc4)CC3)nn12 [AZD5153] + Cn1cnc2c(F)c(Nc3ccc(Br)cc3Cl)c(C(=O)NOCCO)cc21 [Selumetinib] (first compound max 1 µM, 7x7, partner max 10 µM)	-0.0169

Consider the additional molecule presented here.
# Bliss excess of CN(CCO)CC[C@H](CSc1ccccc1)Nc1ccc(S(=O)(=O)NC(=O)c2ccc(N3CCC([C@@H](O)c4ccccc4-c4ccc(Cl)cc4)CC3)cc2)cc1S(=O)(=O)C(F)(F)F [AZD4320] + Cn1cnc2c(F)c(Nc3ccc(Br)cc3Cl)c(C(=O)NOCCO)cc21 [Selumetinib] (first compound max 1 µM, 7x7, partner max 3 µM) = 0.0272

----------
# Tested on: KM12 (Colorectal Carcinoma)
# protocolDescription: combination Emax (second highest fraction inhibited in the dose matrix, 72 h); higher = more inhibition; extreme values may be limits of the assay
Reported combination Emax values for a set of molecules
Give only the figure.

The cases that follow already have their combination Emax on record.
molecule	combination Emax
CCc1c2c(nc3ccc(O)cc13)-c1cc3c(c(=O)n1C2)COC(=O)[C@]3(O)CC [SN-38] + CN(C)CCCOc1ccc(-c2ccc3ncc4c(c3c2)n(C2CCOCC2)c(=O)n4C)cn1 [AZD0156] (first compound max 0.3 µM, 7x7, partner max 1 µM)	0.716
CN(C)CCCOc1ccc(-c2ccc3ncc4c(c3c2)n(C2CCOCC2)c(=O)n4C)cn1 [AZD0156] + CCN(CCO)CCCOc1ccc2c(Nc3cc(CC(=O)Nc4cccc(F)c4)[nH]n3)ncnc2c1 [AZD2811] (first compound max 1 µM, 7x7, partner max 1 µM)	0.0745
C=CCn1c(=O)c2cnc(Nc3ccc(N4CCN(C)CC4)cc3)nc2n1-c1cccc(C(C)(C)O)n1 [AZD1775] + C1CN(CCC1(C(=O)N[C@@H](CCO)C2=CC=C(C=C2)Cl)N)C3=NC=NC4=C3C=CN4 [Capivasertib] (first compound max 3 µM, partner max 3 µM)	0.872
NC1(C(=O)N[C@@H](CCO)c2ccc(Cl)cc2)CCN(c2ncnc3[nH]ccc23)CC1 [Capivasertib] + CC(=O)c1c(C)c2cnc(Nc3ccc(N4CCNCC4)cn3)nc2n(C2CCCC2)c1=O [Palbociclib] (first compound max 10 µM, 7x7, partner max 10 µM)	0.853
Cc1c2c(nn1C)CSCc1cc(n(C)n1)CSc1cc(c3ccccc3c1)OCCCc1c(C(=O)O)n(C)c3c-2c(Cl)ccc13 [AZD5991] + C[C@@H]1COCCN1C2=NC(=NC(=C2)C3(CC3)[S@](=N)(=O)C)C4=C5C=CNC5=NC=C4 [AZD6738] (first compound max 1 µM, 7x7, partner max 10 µM)	0.746
CC1(C)CCC(CN2CCN(c3ccc(C(=O)NS(=O)(=O)c4ccc(NCC5CCOCC5)c([N+](=O)[O-])c4)c(Oc4cnc5[nH]ccc5c4)c3)CC2)=C(c2ccc(Cl)cc2)C1 [Venetoclax] + COc1cc(Nc2ncc3c(n2)-c2ccc(Cl)cc2C(c2c(F)cccc2OC)=NC3)ccc1C(=O)O [Alisertib] (first compound max 1 µM, 7x7, partner max 10 µM)	0.598

Consider the additional molecule presented here.
# combination Emax of Cc1c2c(nn1C)CSCc1cc(n(C)n1)CSc1cc(c3ccccc3c1)OCCCc1c(C(=O)O)n(C)c3c-2c(Cl)ccc13 [AZD5991] + C[C@@H](Nc1cc(F)cc(F)c1)c1cc(C(=O)N(C)C)cc2c(=O)cc(N3CCOCC3)oc12 [AZD8186] (first compound max 1 µM, 7x7, partner max 3 µM) = 0.205

----------
# Tested on: GR-ST (B-Lymphoblastic Leukemia)
# protocolDescription: Bliss excess, mean over the matrix (fraction); higher = more synergy
property: Bliss excess

The cases that follow already have their Bliss excess on record.
molecule	Bliss excess
CN(CCO)CC[C@H](CSc1ccccc1)Nc1ccc(S(=O)(=O)NC(=O)c2ccc(N3CCC([C@@H](O)c4ccccc4-c4ccc(Cl)cc4)CC3)cc2)cc1S(=O)(=O)C(F)(F)F [AZD4320] + CN(C)CCCOc1ccc(-c2ccc3ncc4c(c3c2)n(C2CCOCC2)c(=O)n4C)cn1 [AZD0156] (first compound max 1 µM, 7x7, partner max 1 µM)	-0.0358
CN(C)CCCOc1ccc(-c2ccc3ncc4c(c3c2)n(C2CCOCC2)c(=O)n4C)cn1 [AZD0156] + O=C(c1cc(Cc2n[nH]c(=O)c3ccccc23)ccc1F)N1CCN(C(=O)C2CC2)CC1 [Olaparib] (first compound max 3 µM, partner max 3 µM)	0.131

Consider the additional molecule presented here.
# Bliss excess of Cc1nc(Nc2ncc(C(=O)Nc3c(C)cccc3Cl)s2)cc(N2CCN(CCO)CC2)n1 [Dasatinib] + CC(=O)Nc1cccc(-n2c(=O)n(C3CC3)c(=O)c3c(Nc4ccc(I)cc4F)n(C)c(=O)c(C)c32)c1 [Trametinib] (first compound max 2 µM, 7x7, partner max 1 µM) = 0.0189
